tested on: Trichophyton mentagraphytes A-23; experiment: Agar plate disc diffusion test (zone of inhibition); format: cell-based, Trichophyton mentagrophytes; settings: A23, suspension in methanol 1 mg/ml, 7mm disc, *distinct measurable zone of inhibition with regrowth of organism around disc, read-out: Size of zone of inhibition, Trichophyton mentagraphytes A-23 (*)
Numbered stars: 1 amine (or outer) side, 2 acyl side, 3 side chain; on linkers, the order of the positions; unused ones are H or OH. Bridge positions count the residues as written; N and C are the ends. Square brackets hold non-standard residues; d marks the D form. Peptide text beside a SMILES is read from it. * marks the point of attachment. Orn(4R-OH,5R-OH) = O=C([C@H](C[C@@H](O)[C@@H](O)N[*:3])N[*:1])[*:2]; hTyr(3S-OH,4S-OH) = N[C@H](C(=O)O)[C@H](O)[C@@H](O)c1ccc(O)cc1; Pro(3S-OH,4S-Me) = C[C@H]1CN[C@H](C(=O)O)[C@H]1O; Nonadecanoyl = CCCCCCCCCCCCCCCCCCC(=O)*; Heptadecanoyl = CCCCCCCCCCCCCCCCC(=O)*; Hyp = O=C(O)[C@@H]1C[C@@H](O)CN1; X3 = CCCCCCCC/C=C/CCCCCCCC(=O)*; X5 = CCCCCC/C=C/CCCCCCCC(=O)*
We begin with a simple list: items and their reported zone of inhibition at 1000 µg/mL.
A number alone suffices; assume mm.

## Task Provide value of zone of inhibition at 1000 µg/mL for this record tested with Trichophyton mentagraphytes A-23: CCCCCCCCCCCCCCCCC(=O)N[C@H]1C[C@@H](O)[C@@H](O)NC(=O)[C@@H]2[C@@H](O)[C@@H](C)CN2C(=O)[C@H]([C@@H](C)O)NC(=O)[C@H]([C@H](O)[C@@H](O)c2ccc(O)cc2)NC(=O)[C@@H]2C[C@@H](O)CN2C(=O)[C@H]([C@@H](C)O)NC1=O [Example 5] (Heptadecanoyl-[Orn(4R-OH,5R-OH)]T[Hyp][hTyr(3S-OH,4S-OH)]T[Pro(3S-OH,4S-Me)]; lactam 1-C)
## Result 40

## Task Entry to check: CCCCCC/C=C/CCCCCCCC(=O)N[C@H]1C[C@@H](O)[C@@H](O)NC(=O)[C@@H]2[C@@H](O)[C@@H](C)CN2C(=O)[C@H]([C@@H](C)O)NC(=O)[C@H]([C@H](O)[C@@H](O)c2ccc(O)cc2)NC(=O)[C@@H]2C[C@@H](O)CN2C(=O)[C@H]([C@@H](C)O)NC1=O [Example 3] (X5-[Orn(4R-OH,5R-OH)]T[Hyp][hTyr(3S-OH,4S-OH)]T[Pro(3S-OH,4S-Me)]; lactam 1-C)
## Result 50

## Task Entry to check: CCCCCCCC/C=C/CCCCCCCC(=O)N[C@H]1C[C@@H](O)[C@@H](O)NC(=O)[C@@H]2[C@@H](O)[C@@H](C)CN2C(=O)[C@H]([C@@H](C)O)NC(=O)[C@H]([C@H](O)[C@@H](O)c2ccc(O)cc2)NC(=O)[C@@H]2C[C@@H](O)CN2C(=O)[C@H]([C@@H](C)O)NC1=O [Example 8] (X3-[Orn(4R-OH,5R-OH)]T[Hyp][hTyr(3S-OH,4S-OH)]T[Pro(3S-OH,4S-Me)]; lactam 1-C)
## Result 31

As a next step, examine the molecule that follows.
## Task Provide value of zone of inhibition at 1000 µg/mL for this record tested with Trichophyton mentagraphytes A-23: CCCCCCCCCCCCCCCCCCC(=O)N[C@H]1C[C@@H](O)[C@@H](O)NC(=O)[C@@H]2[C@@H](O)[C@@H](C)CN2C(=O)[C@H]([C@@H](C)O)NC(=O)[C@H]([C@H](O)[C@@H](O)c2ccc(O)cc2)NC(=O)[C@@H]2C[C@@H](O)CN2C(=O)[C@H]([C@@H](C)O)NC1=O [Example 12] (Nonadecanoyl-[Orn(4R-OH,5R-OH)]T[Hyp][hTyr(3S-OH,4S-OH)]T[Pro(3S-OH,4S-Me)]; lactam 1-C)
## Result 22
